I'd appreciate it if you could supply Inhibition values for the items below.
# Species on record: Oryctolagus cuniculus
# protocol.details: Inhibition of contraction induced by caffeine on rabbit renal artery
# Format: functional
# Design: concentration or dose not given beside the values
Write it as a number; the unit % goes unstated.

(Q) Param item = COc1ccc(CCNCCC2CN(S(=O)(=O)c3cccc4cnccc34)c3ccccc3O2)cc1OC (stereo not drawn) ; retrieve measured Inhibition.
(A) 23

(Q) Given the molecule COc1ccc(CCNCCCC2CNc3ccccc3O2)cc1OC (stereo not drawn) , what is its reported Inhibition?
(A) 16

(Q) Endpoint output: Inhibition of COc1ccc(CCNCCCC2Oc3cc4c(cc3NC2=O)OCCO4)cc1OC (stereo not drawn) . Value?
(A) 0

(Q) Value lookup for Inhibition; key = COc1ccc(CCN(C)CCCC2Oc3cc4c(cc3NC2=O)OCCO4)cc1OC (stereo not drawn)
(A) 0

(Q) Please report the recorded Inhibition for Fc1ccc(N2CCN(CCCC3CN(Cc4ccccc4)c4ccccc4O3)CC2)cc1 (stereo not drawn) .
(A) 0

(Q) Dear colleague, I am looking for the recorded Inhibition of the following molecule: Fc1ccc(N2CCN(CCCC3CNc4ccccc4O3)CC2)cc1 (stereo not drawn)
(A) 22

(Q) Returns the measured Inhibition for the input molecule. Input: Fc1ccc(N2CCN(CC3CN(Cc4ccccc4)c4ccccc4O3)CC2)cc1 (stereo not drawn)
(A) 2

(Q) Query (molecule): COc1ccc(CCN(CCCC2Oc3cc4c(cc3NC2=O)OCCO4)Cc2ccccc2)cc1OC (stereo not drawn) ; field requested: Inhibition
(A) 0
